experimental setup: in n-propanol, 293.15 K
measured property: solubility (mole fraction)
Answers are plain numbers.

Reported solubility (mole fraction) ( `Nc1cc(Cl)ccc1[N+](=O)[O-]` ) = 0.0214

----------
experimental setup: in acetonitrile, 283.15 K
measured property: solubility (mole fraction)
Answers are plain numbers.

Sure, the documented solubility (mole fraction) for `Nc1cc(Cl)ccc1[N+](=O)[O-]` is 0.0303

----------
experimental setup: in isopropanol, 283.15 K
measured property: solubility (mole fraction)
Give bare numbers.

# solubility (mole fraction) of `Nc1cc(Cl)ccc1[N+](=O)[O-]` = 0.0146

----------
experimental setup: in 2-butanone, 303.15 K
measured property: solubility (mole fraction)
Give bare numbers.

Record summary for `Nc1cc(Cl)ccc1[N+](=O)[O-]` : reported solubility (mole fraction) = 0.187

Where do the numbers come from? From BigSolDB 2.1.
